Assignment: determine reported GI50 for the given compounds.

Exercise: Record lookup: for SF-268 CNS, what GI50 belongs to "COc1cc2c3c(n(CCCn4ccnc4)c(=O)c2cc1OC)-c1cc2c(cc1C3=O)OCO2" ?
Solution: < 0.01 µM

Exercise: Record lookup: for SF-268 CNS, what GI50 belongs to "O=C(Cc1csc2nc(-c3ccc(Br)cc3)cn12)N/N=C/c1ccccc1" ?
Solution: > 100 µM

Exercise: Record lookup: for SF-268 CNS, what GI50 belongs to "OCc1cn(Cc2ccc(Cl)cc2)c2ccccc12" ?
Solution: 12.3 µM

Exercise: Record lookup: for SF-268 CNS, what GI50 belongs to "COc1ccc(-c2nn(C(=O)NCCN(C)C)cc2-c2ccncc2)cc1Cl" ?
Solution: 3.68 µM

Exercise: Record lookup: for SF-268 CNS, what GI50 belongs to "c1ccc2nc3c(cc2c1)Sc1cc2ccccc2[n+]2c1N3CC2" ?
Solution: 23.6 µM

Exercise: Record lookup: for SF-268 CNS, what GI50 belongs to "CCOC(=O)C1=C(C)N=C2SC=C(c3ccccc3)N2[C@H]1c1cn[nH]c1-c1ccc(Cl)cc1" ?
Solution: 3.65 µM

Exercise: Record lookup: for SF-268 CNS, what GI50 belongs to "O=C1c2ccccc2C(=O)c2c(Nc3ccc(CCO)cc3)ccc(O)c21" ?
Solution: 11 µM

Exercise: Record lookup: for SF-268 CNS, what GI50 belongs to Nc1ccn(C2OC(CO)C(O)C2(F)F)c(=O)n1 (stereo not given) ?
Solution: 0.0378 µM

Exercise: Record lookup: for SF-268 CNS, what GI50 belongs to "c1ccc(CSCCNCCN(CCNCCSCc2ccccc2)CCNCCSCc2ccccc2)cc1" ?
Solution: 1.53 µM

Exercise: Record lookup: for SF-268 CNS, what GI50 belongs to "CCO.CCO.Oc1ccc(Nc2ncns2)cc1.Oc1ccc(Nc2ncns2)cc1.[Ti]" ?
Solution: 36.2 µM

* * *

- Test system: OVCAR-8 ovarian
Your response should consist of one outcome taken from active, inactive

Exercise: Test call for this compound, please: "COc1cc2cc(c1Cl)N(C)C(=O)C[C@H](OC(=O)[C@H](C)N(C)C(=O)CCS)C[C@]1(C)O[C@H]1[C@H](C)[C@@H]1C[C@@](O)(NC(=O)O1)[C@H](OC)/C=C/C=C(\C)C2"
Solution: active

Exercise: Test call for this compound, please: "COc1cc(C(=O)N2CCN(c3ccccn3)CC2)c(N)cc1OCc1ccccc1"
Solution: inactive

Exercise: Test call for this compound, please: "COc1cc2c3c(n(CCCn4ccnc4)c(=O)c2cc1OC)-c1cc2c(cc1C3=O)OCO2"
Solution: active

Exercise: Test call for this compound, please: "O=C(CI)OCC(COC(=O)CI)OC(=O)CI"
Solution: inactive

Exercise: Test call for this compound, please: "O=C1c2ccccc2C(=O)c2c(Nc3ccc(CCO)cc3)ccc(O)c21"
Solution: inactive

Exercise: Test call for this compound, please: Nc1ccn(C2OC(CO)C(O)C2(F)F)c(=O)n1 (configuration not stated)
Solution: active

Exercise: Test call for this compound, please: CC12OC(CC(O)C1O)n1c3ccccc3c3c4c(c5c6ccccc6n2c5c31)C(=O)N(CCN1CCCC1)C4=O (configuration not stated)
Solution: inactive

* * *

Measured GI50 on BT-549 breast follows.

Exercise: Please give the measured GI50 for this molecule: "C/C(=N\NC(=O)c1ccc(C(C)(C)C)cc1)c1ccc(O)cc1O"
Solution: 1.83 µM

Exercise: Please give the measured GI50 for this molecule: "O=C(Cc1csc2nc(-c3ccc(Br)cc3)cn12)N/N=C/c1ccccc1"
Solution: 13 µM

Exercise: Please give the measured GI50 for this molecule: "Cc1cc2c(cc1C)[n+](=O)c(C(=O)C(C)(C)C)c(C(F)(F)F)n2[O-]"
Solution: 12 µM

Exercise: Please give the measured GI50 for this molecule: "Cc1nc2ccc(Nc3nc(Cl)nc(Nc4ccc(F)cc4)n3)cc2n1Cc1ccccc1"
Solution: 4 µM

Exercise: Please give the measured GI50 for this molecule: "COc1cc(/C=C2\CN(S(=O)(=O)c3ccc(C)cc3)C/C(=C\c3cc(CN4CCOCC4)c(O)c(OC)c3)C2=O)cc(CN2CCOCC2)c1O"
Solution: 17.6 µM
